TEST NAME: Plasmid encapsulation (protection from external medium) by anion exchange chromatography on DEAE Sepharose CL-6B
Assay type: physicochemical
RUN PARAMETERS: detergent dialysis
Each entry below carries its reported cationic lipid concentration required for optimal plasmid encapsulation.
Kindly answer with a numeric value in %, unit omitted.

{"MOLECULE": "CCCCCCCCCCCCCCCCCC[N+](C)(C)CCCCCCCCCCCCCCCCCC.[Cl-] [DSDAC]", "UNIT SPEC": "%", "ASSAY RESULT": 6.5}

Quick one: give measured cationic lipid concentration required for optimal plasmid encapsulation for CCCCCCCC/C=C\CCCCCCCC[N+](C)(C)CCCCCCCC/C=C\CCCCCCCC.[Cl-] [DODAC]
8

Determine from records and report cationic lipid concentration required for optimal plasmid encapsulation for CCCCCCCC/C=C\CCCCCCCCOCC(C[N+](C)(C)C)OCCCCCCCC/C=C\CCCCCCCC.[Cl-] (stereo not shown) [DOTMA]
6.5

Return cationic lipid concentration required for optimal plasmid encapsulation for the following molecule: CCCCCCCCCCCCCCOCC(C[N+](C)(C)CCO)OCCCCCCCCCCCCCC.[Br-] (stereo not shown) [DMRIE]
8
